Values from PubChem BioAssay (NCI)

system: SF-539 CNS; assay: NCI-60 one-dose screen, 48 h (100 = growth as untreated, 0 = no growth, -100 = all killed); conditions: 10 µM unless noted
The panel holds about 83,000 compounds, 20% with a hit somewhere; the sample as a whole holds those more often.
Entries whose growth is below 80% take 1 (yes); entries at or above 80% take 0 (no).

{"compound": "Cc1cc(C)c([I+]c2c(C)cc(C)cc2C)c(C)c1", "class label": "1 (yes)"}
{"compound": "O=C(/C=C/C(Cl)(Cl)Cl)Nc1ccc(Cl)cc1", "class label": "0 (no)"}
{"compound": "O=[N+]([O-])/C(=C/c1ccccc1)c1ccccc1", "class label": "0 (no)"}
{"compound": "CC(C)=C1C=C2CC[C@@H]3[C@](C)(CCC[C@@]3(C)C(=O)O)[C@H]2CC1", "class label": "0 (no)"}
{"compound": "C(=N\\Nc1ccc2ccccc2n1)/c1ccccn1", "class label": "1 (yes)"}
{"compound": "Cc1ccc(NC2=CC(=O)C(=O)c3ccccc32)cc1", "class label": "1 (yes)"}
{"compound": "COc1ccc2c(c1OC)OCC(CN(C)C)C2=O (stereo not given)", "class label": "0 (no)"}
{"compound": "O=[N+]([O-])c1ccc(C2N(Cc3ccc(Cl)cc3)CCN2Cc2ccc(Cl)cc2)cc1", "class label": "0 (no)"}
{"compound": "O=[N+]([O-])c1cc(-c2ccccc2)c(O)c([N+](=O)[O-])c1", "class label": "0 (no)"}
